Data provenance is patent US20190105337A1.

Protocol notes: Example 1: pharmacokinetics of Compound I, single (SD) and multiple (MD, q8h 7 days) ascending doses, 3-hour IV infusion, healthy adult subjects
Type: in vivo, human
Reported conditions: human, plasma, intravenous, 2000 mg, 2000 mg multiple dose
Result type: Cmax (ng/mL)
Kindly provide the numeric value in ng/mL only, without the unit symbol.

Query :: Report Cmax for O=C(O)C[C@@H]1CC[C@H](NC(=O)Cc2cccs2)B(O)O1 please.
Result :: 40900

---

Protocol notes: clinical
Reported conditions: human, in vivo, 1500 mg, Plasma Clearance
Result type: clearance (mL/min)
The reply should be a number in mL/min, with the unit left off.

Query :: Recorded clearance for O=C(O)C[C@@H]1CC[C@H](NC(=O)Cc2cccs2)B(O)O1 , please?
Result :: 206

---

Protocol notes: clinical
Reported conditions: both, human, in vivo, Ratio of ELF to total Plasma concentration
Result type: Kp at 3.25 h
Number only, please.

Query :: # get_value(readout='Kp at 3.25 h', item= C[C@@H](O)[C@H]1C(=O)N2C(C(=O)O)=C(S[C@@H]3CN[C@H](C(=O)N(C)C)C3)[C@H](C)[C@H]12 )
Result :: 0.59

---

Protocol notes: clinical
Reported conditions: both, human, in vivo, mean ratios of ELF to simultaneous plasma concentrations (range)
Result type: Kp

Chemical structure	Kp
O=C(O)C[C@@H]1CC[C@H](NC(=O)Cc2cccs2)B(O)O1	0.45 to 1.01

Query :: Fill blank: measured Kp of the compound C[C@@H](O)[C@H]1C(=O)N2C(C(=O)O)=C(S[C@@H]3CN[C@H](C(=O)N(C)C)C3)[C@H](C)[C@H]12 is ____.
Result :: 0.525 to 2.13

---

Protocol notes: Example 6: noncompartmental plasma pharmacokinetics after third dose of the Combination (2 g meropenem/2 g Compound I q8h)
Reported conditions: both, human, plasma, intravenous, Tmax, Compound I 2 g q8h, All Subjects
Result type: Tmax (h)
Give the number; h is assumed, so skip it.

Query :: Which measured Tmax value corresponds to O=C(O)C[C@@H]1CC[C@H](NC(=O)Cc2cccs2)B(O)O1 ?
Result :: 2.98

---

Protocol notes: Example 6: noncompartmental plasma pharmacokinetics after third dose of the Combination (2 g meropenem/2 g Compound I q8h)
Reported conditions: both, human, plasma, intravenous, AUC0-8, meropenem 2 g q8h, 3.25-hour BAL Sampling Group
Result type: AUC(0-t) (µg·h/mL)
// return numeric value only (unit: µg·h/mL, not printed)

Query :: Can you look up the measured AUC(0-t) of C[C@@H](O)[C@H]1C(=O)N2C(C(=O)O)=C(S[C@@H]3CN[C@H](C(=O)N(C)C)C3)[C@H](C)[C@H]12 for me?
Result :: 184

---

Protocol notes: Example 6: noncompartmental plasma pharmacokinetics after third dose of the Combination (2 g meropenem/2 g Compound I q8h)
Reported conditions: both, human, plasma, intravenous, Cmax, meropenem 2 g q8h, 1.5-hour BAL Sampling Group
Result type: Cmax (µg/mL)
# unit: µg/mL | format: bare number

Query :: Fill blank: measured Cmax of the compound C[C@@H](O)[C@H]1C(=O)N2C(C(=O)O)=C(S[C@@H]3CN[C@H](C(=O)N(C)C)C3)[C@H](C)[C@H]12 is ____.
Result :: 56.9

---

Protocol notes: Example 1: pharmacokinetics of Compound I, single (SD) and multiple (MD, q8h 7 days) ascending doses, 3-hour IV infusion, healthy adult subjects
Format: in vivo, human
Reported conditions: human, urine, intravenous, 2000 mg, 2000 mg multiple dose; read-out: Urinary Recovery
Description: 56 healthy subjects were enrolled into one of 7 cohorts of 8 subjects each in the single ascending dose phase (250 mg, 500 mg, 750 mg, 1000 mg, 1250 mg, 1500 mg and 2000 mg). Thirty-two additional subjects were then enrolled into one of 4 cohorts in the multiple-dose phase (250 mg, 1000 mg, 1500 mg, and 2000 mg, given q8 h for 7 days). […] All infusions were administered over 3 hours. […]
Result type: dose excreted (%)
Note: unit % is implicit; provide only the numeric part.

Query :: Query: dose excreted; subject: O=C(O)C[C@@H]1CC[C@H](NC(=O)Cc2cccs2)B(O)O1 [Compound I]
Result :: 91.6

---

Protocol notes: clinical
Reported conditions: human, in vivo, 1500 mg, Cmax
Result type: Cmax (ng/mL)
Express the result in ng/mL but write the number alone.

Query :: // returns reported Cmax for input O=C(O)C[C@@H]1CC[C@H](NC(=O)Cc2cccs2)B(O)O1
Result :: 37200

---

Protocol notes: clinical
Reported conditions: human, in vivo, 1000 mg, AUC(0-∞)
Result type: AUC(0-inf)
Quick note: unit goes after the number.

Query :: Fill blank: measured AUC(0-inf) of the molecule O=C(O)C[C@@H]1CC[C@H](NC(=O)Cc2cccs2)B(O)O1 is ____.
Result :: 77600 ng·h/mL

---

Protocol notes: Example 1: pharmacokinetics of Compound I, single (SD) and multiple (MD, q8h 7 days) ascending doses, 3-hour IV infusion, healthy adult subjects
Assay type: in vivo, human
Reported conditions: human, plasma, intravenous, 250 mg, 250 mg single dose
Description: 56 healthy subjects were enrolled into one of 7 cohorts of 8 subjects each in the single ascending dose phase (250 mg, 500 mg, 750 mg, 1000 mg, 1250 mg, 1500 mg and 2000 mg). Thirty-two additional subjects were then enrolled into one of 4 cohorts in the multiple-dose phase (250 mg, 1000 mg, 1500 mg, and 2000 mg, given q8 h for 7 days). […] All infusions were administered over 3 hours. […]
Result type: Tmax (h)
State the answer as a number, implicitly in h.

Query :: # get_value(readout='Tmax', item= O=C(O)C[C@@H]1CC[C@H](NC(=O)Cc2cccs2)B(O)O1 [Compound I] )
Result :: 3.02

---

Protocol notes: clinical
Reported conditions: both, human, in vivo, Concentration in ELF
Result type: concentration at 8 h (ng/mL)
Answer in ng/mL, number only, no unit symbol.

Query :: concentration at 8 h for C[C@@H](O)[C@H]1C(=O)N2C(C(=O)O)=C(S[C@@H]3CN[C@H](C(=O)N(C)C)C3)[C@H](C)[C@H]12 [meropenem, Meropenem] ?
Result :: 2510

---

Protocol notes: clinical
Reported conditions: human, in vivo, 250 mg, AUC(0-∞)
Result type: AUC(0-inf)
For clarity, give the value followed by its unit.

Query :: Bench note: what AUC(0-inf) did O=C(O)C[C@@H]1CC[C@H](NC(=O)Cc2cccs2)B(O)O1 show?
Result :: 17500 ng·h/mL

---

Protocol notes: clinical
Reported conditions: human, in vivo, Vss
Result type: Vd (L)
Field format: number, assumed L, no unit text.

Query :: Could you share which Vd value was measured for C[C@@H](O)[C@H]1C(=O)N2C(C(=O)O)=C(S[C@@H]3CN[C@H](C(=O)N(C)C)C3)[C@H](C)[C@H]12 [meropenem, Meropenem] ?
Result :: 25.9

---

Quick reference: Kp of the listed items.
Protocol notes: clinical
Reported conditions: both, human, in vivo, intrapulmonary penetration based on AUC0-8 of ELF and total plasma concentrations
Procedure: A total of twenty-five (n=25) male and female subjects who met the study entry criteria and completed all phases of the pharmacokinetic study were included in this pharmacokinetic analysis. […] The concentration of drug (ABXAM) in the alveolar cells (AC) was determined as follows: […] The concentration ratios of ELF and AM to the simultaneous plasma concentrations were calculated for each subject and summarized for each group at each sampling time. […]

Chemical structure	Test result
C[C@@H](O)[C@H]1C(=O)N2C(C(=O)O)=C(S[C@@H]3CN[C@H](C(=O)N(C)C)C3)[C@H](C)[C@H]12	~0.63

Now for the compound whose Kp we want.
Query :: Which Kp reading was recorded for the compound O=C(O)C[C@@H]1CC[C@H](NC(=O)Cc2cccs2)B(O)O1 ?
Result :: ~0.53

---

Protocol notes: clinical
Reported conditions: human, in vivo, Half-Life
Result type: half-life (min)
Give just the number in min; leave the unit off.

Query :: Looking for the measured half-life of C[C@@H](O)[C@H]1C(=O)N2C(C(=O)O)=C(S[C@@H]3CN[C@H](C(=O)N(C)C)C3)[C@H](C)[C@H]12 , can you help?
Result :: 58.8
